Where these numbers come from: ChEMBL document CHEMBL4184235

assay: Cytotoxicity against human THP1 cells assessed as reduction in cell viability incubated for 72 hrs by MTT assay; assay type: cell-based; conditions: THP-1 cells
Each record here notes measured CC50 at 72 h.
Number in µg/mL, nothing else.

These solved cases illustrate the format of a correct answer.
{"smiles-text": "O=C(O)c1cccc(/C=C2\\SC(=S)N([C@H](Cc3ccccc3)C(=O)O)C2=O)c1", "outcome-measure": "CC50 at 72 h", "quantitative-result": 102}
{"smiles-text": "O=C(O)c1ccc(/C=C2\\SC(=S)N([C@@H](Cc3ccccc3)C(=O)O)C2=O)cc1", "outcome-measure": "CC50 at 72 h", "quantitative-result": 115}
{"smiles-text": "COC(=O)c1cccc(/C=C2\\SC(=S)N([C@H](Cc3ccccc3)C(=O)O)C2=O)c1", "outcome-measure": "CC50 at 72 h", "quantitative-result": 21.9}

Attention now shifts to the item below.
// recorded CC50 at 72 h for O=C(OCc1ccccc1)c1cccc(/C=C2\SC(=S)N([C@H](Cc3ccccc3)C(=O)O)C2=O)c1 : 11.2
